Each recorded value in this set is attributed to ChEMBL document CHEMBL3097995.

These compounds were tested on Inosine-5'-monophosphate dehydrogenase 1 (Homo sapiens, UniProt P20839); pKi is the recorded read-out.
Sequence (P20839 whole entry): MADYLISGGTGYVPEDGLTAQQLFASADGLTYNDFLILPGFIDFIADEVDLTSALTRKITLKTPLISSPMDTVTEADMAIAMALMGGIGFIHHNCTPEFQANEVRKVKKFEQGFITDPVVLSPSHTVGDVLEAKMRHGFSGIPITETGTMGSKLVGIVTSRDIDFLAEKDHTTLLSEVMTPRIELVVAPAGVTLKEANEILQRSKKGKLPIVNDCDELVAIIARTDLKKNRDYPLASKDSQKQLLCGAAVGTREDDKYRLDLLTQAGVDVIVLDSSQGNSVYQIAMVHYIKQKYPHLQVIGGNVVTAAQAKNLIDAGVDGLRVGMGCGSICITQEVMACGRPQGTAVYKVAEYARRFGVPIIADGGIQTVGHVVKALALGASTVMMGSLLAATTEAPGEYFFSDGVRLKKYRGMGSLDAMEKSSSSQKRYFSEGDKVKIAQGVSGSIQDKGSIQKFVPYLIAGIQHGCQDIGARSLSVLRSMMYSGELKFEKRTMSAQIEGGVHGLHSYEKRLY
# pKi is unitless: minus log10 of the molar concentration; print number only

Worked set:
compound | pKi
COc1c(C)c2c(c(O)c1C/C=C(\C)CCC(=O)N[C@@H](Cc1ccccc1)C(=O)O)C(=O)OC2 | 6.07
COc1c(C)c2c(c(O)c1C/C=C(\C)CCC(=O)N[C@H](C(=O)O)C(C)C)C(=O)OC2 | 6.88
COc1c(C)c2c(c(O)c1C/C=C(\C)CCC(=O)OC[C@@H]1O[C@H](n3cnc4c(N)ncnc43)[C@@H](O)[C@H]1O)C(=O)OC2 | 5.59
COC(=O)[C@H](NC(=O)CC/C(C)=C/Cc1c(O)c2c(c(C)c1OC)COC2=O)C(C)C | 5.11
COc1c(C)c2c(c(O)c1CCOP(=O)(O)CP(=O)(O)OC[C@H]1O[C@@H](n3cnc4c(N)nc(C(F)(F)F)nc43)[C@H](O)[C@@H]1O)C(=O)OC2 | 7.89

## Input Identify the measured pKi of COc1c(C)c2c(c(O)c1C/C=C(\C)CCC(=O)N[C@@H](Cc1c[nH]c3ccccc13)C(=O)O)C(=O)OC2 for Inosine-5'-monophosphate dehydrogenase 1 (Homo sapiens, UniProt P20839).
## Output 7.25

## Input Please tell me: pKi of COC(=O)[C@@H](Cc1c[nH]c2ccccc12)NC(=O)CC/C(C)=C/Cc1c(O)c2c(c(C)c1OC)COC2=O , system Inosine-5'-monophosphate dehydrogenase 1 (Homo sapiens, UniProt P20839)?
## Output 6.84

## Input Missing value: pKi, Inosine-5'-monophosphate dehydrogenase 1 (Homo sapiens, UniProt P20839), entry COC(=O)[C@@H](Cc1ccccc1)NC(=O)CC/C(C)=C/Cc1c(O)c2c(c(C)c1OC)COC2=O . Fill in?
## Output 5.26
